Tested on: KB-3-1
Assay: Cytotoxic Profiling of Annotated Libraries Using Quantitative High-Throughput Screening (AID 1296008); also: % is scaled to controls: 0 for no effect and ±100 for the full control effect; nearly all actives have a fitted effect of over 60% in size
Settings: Five cell lines viability, CellTiter-Glo ATP luminescence, 48-72 h; active compounds read low
Records with an inconclusive call do not appear.
Attribute: max response
measured parameter: max response (%)

compound | measure unit | numeric result
COC(=O)C1=CO[C@@H](O[C@@H]2O[C@H](CO)[C@@H](O)[C@H](O)[C@H]2O)[C@@H]2[C@@](C)(O)[C@@H](O)C[C@]12O | % | 1.93
CCOC(=O)c1c(C)nn(-c2cccc([N+](=O)[O-])c2)c1C | % | 0.772
Cc1cc(CC(C)CC(C)(C)C)n(O)c(=O)c1 (stereo unspecified) (tested in a mixture with another compound) | % | 29.3
CNC(=O)COC(=O)NCCC1CCN(c2cccc(C)n2)CC1 | % | 9.28
CC1CCC2(C)C(CC(O)C(O)C23CO3)C1(C)CCC1=CC(=O)OC1O (stereo unspecified) | % | 4.04
OCC1OC(Oc2cc(O)c3c(c2)OC(c2ccc(O)cc2)C(O)C3)C(O)C1O (stereo unspecified) | % | 9.04
C[C@H]1[C@H](C)CC[C@]2(C(=O)O)CC[C@]3(C(=O)O)C(=CCC4[C@@]5(C)CC[C@H](O[C@@H]6O[C@H](C)[C@@H](O)[C@H](O)[C@H]6O)C(C)(C)C5CC[C@]43C)[C@H]12 (stereo partly specified) | % | 1.93
CCN[C@@H]1C[C@H](N)[C@@H](O[C@H]2OC(CN)=CC[C@H]2N)[C@H](O)[C@H]1O[C@H]1OC[C@](C)(O)[C@H](NC)[C@H]1O | % | 9.12
CC(=C/C(=O)O)/C=C/[C@]1(O)[C@@]2(C)CO[C@]1(C)C[C@H](O[C@@H]1O[C@H](CO)[C@@H](O)[C@H](O)[C@H]1O)C2 | % | 0.594
COc1ccc([C@H]2Cc3cccc(O)c3C(=O)O2)cc1 | % | 9.62
CC/C=C/CC1=C(CCCCCCCC(=O)O)CCC1=O | % | 0.0316
O=C(CCCCc1ccc2ccccc2c1)C(F)(F)F | % | 2.37
C=C1CC[C@@H]2[C@](C)(CO[C@@H]3O[C@H](CO)[C@@H](O)[C@H](O)[C@H]3O)CCC[C@@]2(C)[C@@H]1CCC1=CCOC1=O | % | 2.64
CCC(C)(O)C(O)C(=O)OCc1ccc(O[C@@H]2O[C@H](CO)[C@@H](O)[C@H](O)[C@H]2O)c(OC)c1 (stereo partly specified) | % | 4.31
C/C(=C/CCC(CO)C1CCC2(C)C3CCC4C(C)(C)C(OC5OC(CO)C(O)C(O)C5O)CC(O)C45CC35CCC12C)COC1OC(CO)C(O)C(O)C1O (stereo unspecified) | % | -1.63
CC(Oc1ccccc1)C(=O)N[C@@H]1C(=O)N2[C@@H]1SC(C)(C)[C@@H]2C(=O)O (stereo partly specified) | % | -0.849

---

Experiment: P-glycoprotein substrates identified in KB-3-1 adenocarcinoma cell line, qHTS therapeutic library screen (AID 1346986); also: nearly all actives have a fitted effect of over 60% in size
Conditions: KB-3-1 parental cells viability, CellTiter-Glo, 72 h; series mostly up to 44.5 µM
Records with an inconclusive call do not appear. Calls of active or inactive are those of the source. Calls come from the whole dose curve; as a rule, active = well fitted inhibition curve with a large enough effect; inconclusive = small, poorly fitted or top-dose-only effect; inactive = no such curve, though single readings can be large or run the other way.
measured parameter: outcome

compound | measured parameter | result
CNC(=O)[C@H]1O[C@@H](n2cnc3c(NCc4ccc(N)c(I)c4)ncnc32)[C@H](O)[C@@H]1O | outcome | inactive [at 9.29 µM]
O=C(CCO[C@@H]1O[C@H](CO)[C@@H](O)[C@H](O)[C@H]1O)c1ccc(O)cc1 | outcome | inactive
CCN[C@@H]1C[C@H](N)[C@@H](O[C@H]2OC(CN)=CC[C@H]2N)[C@H](O)[C@H]1O[C@H]1OC[C@](C)(O)[C@H](NC)[C@H]1O | outcome | inactive
CO[C@@H]1CC[C@H](OC[C@]2(COC(=O)c3ccc(C)[nH]3)[C@H](OC(C)=O)CC[C@@]3(C)[C@@H]4CC=C(C)[C@@H](C5=C(O)C(=O)OC5O)[C@]4(C)CC[C@@H]32)O[C@H]1C (stereo partly specified) | outcome | inactive
CC12CCC3C(C)(C)C(O)CCC3(C)C1Cc1c(oc(C(=O)O)cc1=O)O2 (stereo unspecified) | outcome | inactive
CC(=O)O[C@@H]1C[C@]2(C)[C@@]3(CCC4[C@@]5(C)CC[C@H](O[C@@H]6O[C@H](C(=O)O)[C@@H](O)[C@H](O[C@@H]7O[C@H](CO)[C@H](O)[C@H](O)[C@H]7O[C@@H]7O[C@@H](C)[C@H](O)[C@@H](O)[C@H]7O[C@@H]7OC[C@](O)(CO)[C@H]7O)[C@H]6O[C@@H]6O[C@H](CO)[C@H](O)[C@H](O)[C@H]6O)C(C)(C)C5CC[C@]42C)O[C@@H](O)[C@]12C3CC(C)(C)[C@@H](OC(=O)/C=C/c1ccc(O)c(O)c1)[C@@H]2OC(=O)/C=C/c1ccccc1 (stereo partly specified) | outcome | inactive [at 9.29 µM]
CCC(C)/C=C(C)/C=C/C1=CC2=C(Cl)C(=O)C(C)(OC(C)=O)C(=O)C2=CN1C1CCCCN(C(CCC(N)=O)C(=O)O)C1=O (stereo unspecified) | outcome | inactive
C[C@@H]1O[C@@H](O[C@H]2[C@H](O[C@H]3CC[C@@]4(C)C(CC[C@]5(C)C4CC=C4[C@@H]6CC(C)(C)CC[C@]6(C(=O)O)CC[C@]45C)[C@]3(C)CO)OC[C@H](O)[C@@H]2O)[C@H](O)[C@H](O[C@@H]2OC[C@@H](O)[C@H](O)[C@H]2O)[C@H]1O (stereo partly specified) | outcome | inactive [at 9.29 µM]
CC(C)=CCc1ccc(Oc2c(O)cc(C)cc2CO)c(C(=O)O)c1O | outcome | inactive
CC(C)C1=CC2=CCC3[C@](C)(CCC[C@@]3(C)C(=O)O)C2CC1O (stereo partly specified) | outcome | inactive
CC(=O)O[C@H]1C[C@@H]2[C@]3(CC[C@]4(C)[C@@H](C5(C)CCC(C(C)(C)O)O5)[C@@H](O)C[C@@]24C)C[C@@]32CC[C@H](O[C@@H]3OC[C@@H](O)[C@H](O)[C@H]3O)C(C)(C)[C@H]12 (stereo partly specified) | outcome | inactive
